endpoint: melting point

[[record]]
line_notation = "COC(=O)CCCCc1ccc(CN2CCN(c3ccncc3)CC2)cc1"
endpoint = "melting point"
recorded_measurement = "53 to 54 °C"


Now turn to the next compound.
Query string: Supply reported melting point belonging to this compound: CC1(C)CCC(C)(C)c2cc(C3=NN(c4ccc(C(=O)O)cc4)CC3)ccc21
Result string: 276 to 278 °C

====

Measured melting point accompanies every entry in the list below.

[[record]]
compound = "COc1cccc2c1OC(CN1CCC(NC(=O)Nc3ccccc3)CC1)CC2 (stereo not given)"
recorded_measurement = "163 °C"


Query string: Supply reported melting point belonging to this compound: COc1ccc(C(=O)Nc2c(Cl)cncc2Cl)c2c3ccccc3n(Cc3ccc(F)cc3)c12
Result string: 222 to 225 °C

Query string: Supply reported melting point belonging to this compound: CCCc1nc2c(N)nc3ccccc3c2n1CC(C)C
Result string: 191 to 192 °C

Query string: Supply reported melting point belonging to this compound: COC(=O)NC1=NCC(c2ccc(OC(C)C)cc2)N1C (stereo not given)
Result string: 135 to 138 °C
